Attribution: ChEMBL document CHEMBL4028814

Quick reference for ΔTm among some compounds
Biological target: Serine/threonine-protein kinase pim-1 (Homo sapiens, UniProt P11309)
Sequence (P11309 whole entry, looked up): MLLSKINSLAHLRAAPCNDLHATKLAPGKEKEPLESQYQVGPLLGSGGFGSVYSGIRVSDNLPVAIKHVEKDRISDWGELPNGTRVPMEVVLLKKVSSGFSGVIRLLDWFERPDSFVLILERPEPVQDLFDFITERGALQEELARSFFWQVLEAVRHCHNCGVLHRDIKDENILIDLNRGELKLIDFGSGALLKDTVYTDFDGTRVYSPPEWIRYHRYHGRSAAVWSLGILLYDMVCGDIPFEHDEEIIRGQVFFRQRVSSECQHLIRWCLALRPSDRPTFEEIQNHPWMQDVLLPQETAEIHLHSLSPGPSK
Assay: Inhibition of recombinant PIM1 (unknown origin) assessed as change in melting temperature at 10 uM by SYPRO orange dye-based differential scanning fluorimetric method
# value in °C; strip the unit string

Previously resolved entries follow.
O=C1NC(=S)S/C1=C\c1cnc2ccccc2n1 :: 10.4
COc1ccc(-c2nc(/C=C3\SC(=S)NC3=O)cs2)cc1 :: 13.2
O=C1NC(=S)n2c1cc1ccc(-c3ccco3)cc1c2=O :: 1.9

What the record says about `O=C1NC(=S)n2c1cc1ccc(Oc3ccc(F)cc3)cc1c2=O` : ΔTm is 0.3

What the record says about `N=C1NC(=O)/C(=C/c2csc(-c3ccc(C(F)(F)F)cc3)n2)S1` : ΔTm is 9.4
